Test system: Porphyromonas asaccharolytica
assay: Antibacterial activity against Porphyromonas asaccharolytica by CLSI M11-A7 agar dilution method
Type: functional
The reader will find reported MIC90 values listed item by item below.
Note: unit µg/mL is implicit; provide only the numeric part.

Below, each entry is followed by its recorded MIC90 result.
Cn1nnc(-c2ccc(-c3ccc(N4C[C@H](CO)OC4=O)cc3F)cn2)n1 [TEDIZOLID]
0.5
Cc1ncc([N+](=O)[O-])n1CCO [METRONIDAZOLE]
1
C[C@@H](O)[C@H]1C(=O)N2C(C(=O)O)=C(SCCNC=N)C[C@H]12 [IMIPENEM ANHYDROUS]
0.06

Now take the following compound into account.
Can you look up the measured MIC90 of CC(=O)NC[C@H]1CN(c2ccc(N3CCOCC3)c(F)c2)C(=O)O1 [LINEZOLID] for me?
2

====

The reader will find reported MIC50 values listed item by item below.
Test system: Staphylococcus aureus
assay: Antibacterial activity against methicillin-resistant Staphylococcus aureus by CLSI M7-A7 broth microdilution method
Type: functional
Note: unit µg/mL is implicit; provide only the numeric part.

CC(=O)NC[C@H]1CN(c2ccc(N3CCOCC3)c(F)c2)C(=O)O1
2
Cc1onc(-c2ccccc2)c1C(=O)N[C@@H]1C(=O)N2[C@@H]1SC(C)(C)[C@@H]2C(=O)O
32
Cn1nnc(-c2ccc(-c3ccc(N4C[C@H](CO)OC4=O)cc3F)cn2)n1
0.5

Now take the following molecule into account.
Missing value: MIC50, Staphylococcus aureus, entry CN[C@H](CC(C)C)C(=O)N[C@H]1C(=O)N[C@@H](CC(N)=O)C(=O)N[C@H]2C(=O)N[C@H]3C(=O)N[C@H](C(=O)N[C@H](C(=O)O)c4cc(O)cc(O)c4-c4cc3ccc4O)[C@H](O)c3ccc(c(Cl)c3)Oc3cc2cc(c3O[C@@H]2O[C@H](CO)[C@@H](O)[C@H](O)[C@H]2O[C@H]2C[C@](C)(N)[C@H](O)[C@H](C)O2)Oc2ccc(cc2Cl)[C@H]1O . Fill in?
1

====

The reader will find reported MIC90 values listed item by item below.
Test system: Phocaeicola vulgatus
assay: Antibacterial activity against Bacteroides vulgatus by CLSI M11-A7 agar dilution method
Type: functional

Cc1ncc([N+](=O)[O-])n1CCO [METRONIDAZOLE]
0.25 µg/mL
C[C@@H](O)[C@H]1C(=O)N2C(C(=O)O)=C(SCCNC=N)C[C@H]12 [IMIPENEM ANHYDROUS]
0.5 µg/mL
Cn1nnc(-c2ccc(-c3ccc(N4C[C@H](CO)OC4=O)cc3F)cn2)n1 [TEDIZOLID]
4 µg/mL

Now take the following molecule into account.
Missing value: MIC90, Phocaeicola vulgatus, entry CC(=O)NC[C@H]1CN(c2ccc(N3CCOCC3)c(F)c2)C(=O)O1 [LINEZOLID] . Fill in?
4 µg/mL

====

The reader will find reported MIC50 values listed item by item below.
Tested on: Clostridium perfringens
assay: Antibacterial activity against Clostridium perfringens by CLSI M11-A7 agar dilution method
Type: functional
Note: unit µg/mL is implicit; provide only the numeric part.

Below, each entry is followed by its recorded MIC50 result.
C[C@@H](O)[C@H]1C(=O)N2C(C(=O)O)=C(SCCNC=N)C[C@H]12 [IMIPENEM ANHYDROUS]
0.12
Cc1ncc([N+](=O)[O-])n1CCO
1
CC(=O)NC[C@H]1CN(c2ccc(N3CCOCC3)c(F)c2)C(=O)O1
2

Now take the following compound into account.
Can you look up the measured MIC50 of Cn1nnc(-c2ccc(-c3ccc(N4C[C@H](CO)OC4=O)cc3F)cn2)n1 for me?
0.5

The reported measurements were obtained from ChEMBL document CHEMBL1649571.
